Listed below: GI50 values for each entry.
- System: HCC 2998
- MEASUREMENT_DESCRIPTION: NCI tumour cell line growth inhibition, 48 h
Active and inactive are the calls of the source. Rule as the data show it: active = GI50 up to about 1.1 µM and inactive = higher.

- COMPOUND: "Oc1c(Br)c(-c2ccccc2)nc2ccccc12"
  GI50: "> 10 µM (inactive)"
- COMPOUND: "CCOC(=O)c1c(-c2ccc(O)c(OC)c2)c(C#N)c(=S)n(C2OC(CO)C(O)C(O)C2O)c1-c1ccccc1 (stereo not given)"
  GI50: "> 100 µM (inactive)"
- COMPOUND: "O=C(Nc1c(Cl)cc([N+](=O)[O-])cc1Cl)C(=O)C1C(=O)NC(=S)NC1=O"
  GI50: "> 100 µM (inactive)"
- COMPOUND: "CCc1nnc(-n2c(C)nc3cc(Cl)ccc3c2=O)s1"
  GI50: "49.8 µM (inactive)"
- COMPOUND: "CC(NC(=O)NC(C)(C)C)NC(=O)C(N)CC(=O)O (stereo not given)"
  GI50: "> 10 µM (inactive)"
- COMPOUND: "N#Cc1ccccc1NC(=O)C(O)C(O)C(O)C(O)C=O (stereo not given)"
  GI50: "> 100 µM (inactive)"
- COMPOUND: "COc1ccc2c(c1)CCc1c(-c3noc4c3CCc3cc(OC)ccc3-4)noc1-2"
  GI50: "40.4 µM (inactive)"
- COMPOUND: "Cc1ccc(-c2cc(-c3c(C)nn(C)c(=O)c3N)n[nH]2)cc1"
  GI50: "> 100 µM (inactive)"
- COMPOUND: "COc1cc(N2C(=O)C(=O)C3(CCCCC3)C2=O)cc(OC)c1OC"
  GI50: "> 100 µM (inactive)"
- COMPOUND: "Cc1oc2nc(N(C)C)nc(NN)c2c1C"
  GI50: "> 100 µM (inactive)"
- COMPOUND: "CN(C)CCCN1c2ccccc2CCc2cccc([N+](=O)[O-])c21"
  GI50: "17.7 µM (inactive)"
- COMPOUND: "Cc1ccc(/C=C2\\Cc3cc(C)c(C)cc3C2=O)c(C(=O)O)c1"
  GI50: "26.1 µM (inactive)"
- COMPOUND: "Cc1nc(Nc2ccc(Cl)cc2)sc1C(=O)NNc1ccc([N+](=O)[O-])cc1[N+](=O)[O-]"
  GI50: "16.3 µM (inactive)"
- COMPOUND: "O=C1C2CCN(CC2)C1CN1CCOCC1 (stereo not given)"
  GI50: "15.7 µM (inactive)"
- COMPOUND: "CC1=C2C(O)C(C(C)CO)C(O)CC2(C)C(O)CC1 (stereo not given)"
  GI50: "> 100 µM (inactive)"

----------
Listed below: GI50 values for each entry.
- System: SK-OV-3
- MEASUREMENT_DESCRIPTION: NCI tumour cell line growth inhibition, 48 h
The source made the active and inactive calls. Rule as the data show it: active = GI50 up to about 1.1 µM and inactive = higher.
EXPERIMENTAL_READOUT: GI50

- MOLECULE: "CC1=C(c2cc(C(=O)Nc3ccc(Cl)c(Cl)c3)nc(N)n2)Sc2ccccc2N1"
  ENDPOINT_RESULT: "> 100 µM (inactive)"
- MOLECULE: "COC(=O)C1=C(C)N2[C@H](C(=O)O)CO[C@@]2(C)[C@H](C(=O)OC)[C@H]1c1cccc([N+](=O)[O-])c1"
  ENDPOINT_RESULT: "> 100 µM (inactive)"
- MOLECULE: "Cc1c(C(=O)/C=C/c2ccccc2O)c(=O)n(-c2ccccc2)n1C"
  ENDPOINT_RESULT: "36.1 µM (inactive)"
- MOLECULE: "CC(=O)CCC[C@H](C)[C@@H](O)[C@@H]1O[C@H]([C@@]2(C)CCC(=O)O2)C[C@H]1C(=O)O"
  ENDPOINT_RESULT: "> 100 µM (inactive)"
- MOLECULE: "O=C1OC(c2ccccc2)=NC1c1ccccc1 (configuration not stated)"
  ENDPOINT_RESULT: "> 100 µM (inactive)"
- MOLECULE: "Cn1sc2ccccc2c1=S"
  ENDPOINT_RESULT: "36.1 µM (inactive)"
- MOLECULE: "CCN(CCO)CCNc1ccc(C)c2sc3ccccc3c(=O)c12"
  ENDPOINT_RESULT: "5.66 µM (inactive)"

----------
- System: HCT-116
- MEASUREMENT_DESCRIPTION: NCI tumour cell line growth inhibition, 48 h
The source made the active and inactive calls. Cut-off read from the data, not from the text of the source: active = GI50 up to about 1.1 µM and inactive = higher.
Listed below: GI50 values for each entry.
EXPERIMENTAL_READOUT: GI50

- COMPOUND: "N#CC1=C(N)N(/N=C/c2ccccc2)C(c2ccccc2)C1(C#N)C#N (stereo unspecified)"
  ENDPOINT_RESULT: "2.81 µM (inactive)"
- COMPOUND: "O=c1[nH]c(=O)n(C2OC(CO)C(O)C2O)cc1/N=N/NCc1ccccc1 (stereo unspecified)"
  ENDPOINT_RESULT: "> 62.2 µM (inactive)"
- COMPOUND: "Cc1ccc(/C=C2\\Cc3cc(C)c(C)cc3C2=O)c(C(=O)O)c1"
  ENDPOINT_RESULT: "32.1 µM (inactive)"
- COMPOUND: "COc1ccc(C2=NNC(c3cc4cc(Br)ccc4nc3Cl)C2)cc1 (stereo unspecified)"
  ENDPOINT_RESULT: "10.5 µM (inactive)"
- COMPOUND: "COc1ccc(C2=CC(c3ccccc3)n3nnnc3N2)cc1 (stereo unspecified)"
  ENDPOINT_RESULT: "> 100 µM (inactive)"
- COMPOUND: "O=[N+]([O-])C(Cl)=C/C(=C(\\Cl)SCc1ccccc1)[N+](=O)[O-]"
  ENDPOINT_RESULT: "18.4 µM (inactive)"

----------
Listed below: GI50 values for each entry.
- Tested on: 786-0
- MEASUREMENT_DESCRIPTION: NCI tumour cell line growth inhibition, 48 h
The source made the active and inactive calls. Cut-off read from the data, not from the text of the source: active = GI50 up to about 1.1 µM and inactive = higher.

- MOLECULE: "O=C1C(c2c(O)[nH]c3ccccc23)=Nc2ccc(Br)cc21"
  GI50: "9.62 µM (inactive)"
- MOLECULE: "CC(=O)Oc1ccc(C)c2c1[C@H]1CC[C@]3(C)[C@@H](OC(C)=O)CC[C@H]3[C@@H]1CC2"
  GI50: "21.3 µM (inactive)"
- MOLECULE: "O=C(Cc1ccccc1)Nn1c(-c2ccccc2)nc2ccccc2c1=O"
  GI50: "> 100 µM (inactive)"
- MOLECULE: "O=C1/C(=C\\c2cccc(Oc3ccccc3)c2)S(=O)(=O)C(c2ccccc2)N1c1ccc(Cl)cc1 (stereo not drawn)"
  GI50: "14 µM (inactive)"
- MOLECULE: "Cc1ccc(-c2cc(-c3c(C)nn(C)c(=O)c3N)n[nH]2)cc1"
  GI50: "> 100 µM (inactive)"
- MOLECULE: "O=C1CSC(c2cccc(Oc3ccccc3)c2)N1c1ccc(Cl)cc1 (stereo not drawn)"
  GI50: "31.8 µM (inactive)"
- MOLECULE: "CC(=O)Oc1c(C)c(-c2ccccc2)c(C)c(-c2ccccc2)c1C(=S)c1ccccc1"
  GI50: "> 100 µM (inactive)"
- MOLECULE: "CCOC(=O)/C(=C/c1ccccn1)C(=O)c1ccccc1"
  GI50: "12.8 µM (inactive)"
- MOLECULE: "CCN(CCC#N)C(=O)Nc1ccccc1"
  GI50: "> 100 µM (inactive)"
- MOLECULE: "OCCOc1ccccc2cccc1-2"
  GI50: "> 100 µM (inactive)"
- MOLECULE: "CN(C)CCN(c1ccccn1)c1ccccn1"
  GI50: "> 100 µM (inactive)"
- MOLECULE: "CCc1cc(CCC(=O)Nc2c(C)cccc2C)n[nH]1"
  GI50: "> 100 µM (inactive)"
- MOLECULE: "O=C1NC(N2CCOCC2)=N/C1=C\\c1ccccc1"
  GI50: "> 100 µM (inactive)"

----------
- Test system: OVCAR-5
- MEASUREMENT_DESCRIPTION: NCI tumour cell line growth inhibition, 48 h
Calls of active or inactive are those of the source. No stated cut-off is given here; in the data, active = GI50 up to about 1.1 µM and inactive = higher.
Listed below: GI50 values for each entry.
EXPERIMENTAL_READOUT: GI50

- MOLECULE: "CNC(=O)Nn1c(SC)nc2ccccc21"
  ENDPOINT_RESULT: "> 100 µM (inactive)"
- MOLECULE: "CCN(CC)C(=O)C/C(C)=N/NC(=O)c1ccncc1"
  ENDPOINT_RESULT: "> 100 µM (inactive)"
- MOLECULE: "CC(=O)CCC[C@H](C)[C@@H](O)[C@@H]1O[C@H]([C@@]2(C)CCC(=O)O2)C[C@H]1C(=O)O"
  ENDPOINT_RESULT: "> 100 µM (inactive)"
- MOLECULE: "NC1OC(COC(=O)c2ccccc2)C(O)C(OC(=O)c2ccccc2)C1OC(=O)c1ccccc1 (stereo unspecified)"
  ENDPOINT_RESULT: "24.3 µM (inactive)"
- MOLECULE: "CC(=O)Oc1ccc(C)c2c1[C@H]1CC[C@]3(C)[C@@H](OC(C)=O)CC[C@H]3[C@@H]1CC2"
  ENDPOINT_RESULT: "> 100 µM (inactive)"
- MOLECULE: "O=C(N/C=C1\\C(=O)Oc2ccccc2C1=O)Oc1ccccc1"
  ENDPOINT_RESULT: "46.1 µM (inactive)"
